Target: HLA-A*0201 (human)
Assay: inhibition of binding of 125I-labelled standard peptide to purified HLA, gel filtration
result type: relative binding ratio (IC50 of standard peptide / IC50 of test peptide)

>>> reported_measurement("DLQPETTDL (modifications not checked) [HPV16 E7 peptide … (position 14, 9 amino acids)]")
0.0003
>>> reported_measurement("DIRTLEDL (modifications not checked) [HPV16 E7 peptide DIRTLEDL (position 75, 8 amino acids)]")
0.0001
>>> reported_measurement("HVDIRTLEDL (modifications not checked) [HPV16 E7 peptide … (position 73, 10 amino acids)]")
0.0001
>>> reported_measurement("LMGTLGIV (modifications not checked) [HPV16 E7 peptide LMGTLGIV (position 83, 8 amino acids)]")
0.0001
>>> reported_measurement("DLLMGTLGI (modifications not checked) [HPV16 E7 peptide … (position 81, 9 amino acids)]")
0.0002
>>> reported_measurement("MLDLQPETTDL (modifications not checked) [HPV16 E7 peptide … (position 12, 11 amino acids)]")
0.0005
>>> reported_measurement("TIHDIILECV (modifications not checked) [HPV16 E6 peptide … (position 29, 10 amino acids)]")
0.021
>>> reported_measurement("LLMGTLGI (modifications not checked) [HPV16 E7 peptide LLMGTLGI (position 82, 8 amino acids)]")
0.0008
